test: basal S. cerevisiae growth modulation, no modifier, primary screen, OD600, strain BY4716, 24 h, basal condition (AID 1173); conditions: OD600, 24 h, called active from +8 up or from −8 down
Active and inactive are the calls of the source.
Possible outcomes: active, inactive

{"compound": "COCCOC(=O)N1C(=O)[C@@]2(c3ccccc31)[C@H](C(N)=O)[C@H]1C(=O)O[C@H](c3ccccc3)[C@H](c3ccccc3)N1[C@@H]2c1ccc(OCCO)cc1", "assignedCategory": "inactive"}
{"compound": "CC(C)(C)OC(=O)CC[C@]1(C(N)=O)N=C(c2ccc(OCCCO)cc2)O[C@H]1c1ccccc1CN=[N+]=[N-]", "assignedCategory": "inactive"}
{"compound": "O=C1C2C=CC(C(O)c3cccc(O)c3)N(Nc3ccccc3F)C2C(=O)N1c1ccccc1 (configuration not stated)", "assignedCategory": "active"}
{"compound": "CO[C@H]1O[C@H](CO)[C@@H](OC(=O)Nc2ccc3c(c2)OCO3)[C@@H]2OC(=O)[C@@H](Cc3ccccc3)C/C=C/C[C@H](Cc3ccccc3)C(=O)O[C@@H]12", "assignedCategory": "inactive"}
{"compound": "Cc1ccc(S[C@]2(C(=O)NC3CC3)CC(=O)N(Cc3cc(C(F)(F)F)cc(C(F)(F)F)c3)[C@@H]2c2ccc(CO)cc2I)cc1", "assignedCategory": "inactive"}
{"compound": "CCCCCN1CC=CC23O[C@@H]4C=CCOC(=O)[C@@H]4[C@H]2C(=O)N(CCCCCO)[C@@H]3C1=O (some centres not stated)", "assignedCategory": "inactive"}
{"compound": "COC(=O)[C@@]1(Cc2ccccc2)[C@@H]2[C@@H](CC(=O)[C@H]2CC(=O)C(=O)N(C)C)CN1C(=O)c1ccccc1", "assignedCategory": "inactive"}

====

test: small-molecule binders of probe aNOTCH3, primary screen, biochemical, small-molecule microarray, 635/667 nm fluorescence (AID 1120); settings: higher = more signal;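 note: probe is a biotin-tagged antibody raised against NOTCH3 rather than NOTCH3 protein; score merges spot fluorescence near 667 nm with spot signal to noise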
List of composite z-score values.
measuredMetric: composite z-score

{"chemicalSmiles": "CC(=O)NCCCC[C@@H]1NC(=O)[C@@H]2C[C@H](C(=O)NCCCCCC[N+](C)(C)C)[C@H](c3ccc(O)cc3)N2C1=O", "measuredMetric": "composite z-score", "recordedResult": -0.0611}
{"chemicalSmiles": "O=C1c2ccccc2[C@](Cc2ccccc2I)(C(=O)O)[C@H](c2ccc(CO)cc2)N1Cc1ccccc1", "measuredMetric": "composite z-score", "recordedResult": -0.123}
{"chemicalSmiles": "COC(=O)c1ccc([C@H](NC(=O)c2ccccc2)[C@]2(C)C[C@H]2C2CCCCC2)cc1", "measuredMetric": "composite z-score", "recordedResult": 0.237}
{"chemicalSmiles": "COCC(=C=CC[C@@H](O)c1cccc(OCCO)c1)C[C@@H](O)COCc1ccccc1", "measuredMetric": "composite z-score", "recordedResult": 0.381}
{"chemicalSmiles": "C=CC[C@]1(C(=O)N(C)C)COC(c2ccc(OCCCO)cc2)=N1", "measuredMetric": "composite z-score", "recordedResult": 0.298}
{"chemicalSmiles": "CN(C)CCCC[C@@H]1NC(=O)[C@H]2C[C@@H](C(=O)O)[C@@H](c3cccc(OCCO)c3)N2C1=O", "measuredMetric": "composite z-score", "recordedResult": 0.601}
{"chemicalSmiles": "COCCCNC(=O)[C@@H]1c2ccccc2C(=O)N(C2CCCCC2)[C@H]1c1ccc(CO)cc1", "measuredMetric": "composite z-score", "recordedResult": -0.27}
{"chemicalSmiles": "C=C(COC)/C(=C/C[C@@H](OC(C)=O)c1ccccc1OCCO)c1cc(C(=O)OC)ccc1OC", "measuredMetric": "composite z-score", "recordedResult": 0.213}
